The reported measurements were obtained from the supplement of paper PMC10307832.

// reported relative viability for each item listed
# System: SW 1573
# Test Summary: relative viability (nuclei count vs DMSO), 5 days (fraction); higher = more cells survive
# Assay Setup: first compound 20 µM
Reply with just the number.

Molecule	Quantitative Result
COCC1(CO)C(=O)C2CCN1CC2 (stereo not drawn) [PRIMA-1MET] + COc1cccc2cc(-c3nc([C@H]4CC[C@H](C(=O)O)CC4)n4ncnc(N)c34)[nH]c12 [OSI-027] (partner 0.5 µM)	0.032
COCC1(CO)C(=O)C2CCN1CC2 (stereo not drawn) [PRIMA-1MET] + O=C(CCCCCCC(=O)Nc1ccccc1)NO [Vorinostat] (partner 1 µM)	0.0325
COCC1(CO)C(=O)C2CCN1CC2 (stereo not drawn) [PRIMA-1MET] + CC(=O)c1c(C)c2cnc(Nc3ccc(N4CCNCC4)cn3)nc2n(C2CCCC2)c1=O [Palbociclib] (partner 0.5 µM)	0.0194
COCC1(CO)C(=O)C2CCN1CC2 (stereo not drawn) [PRIMA-1MET] + Nc1nc2[nH]cc(CCc3ccc(C(=O)N[C@@H](CCC(=O)O)C(=O)O)cc3)c2c(=O)[nH]1 [Pemetrexed] (partner 0.2 µM)	0.0278
COCC1(CO)C(=O)C2CCN1CC2 (stereo not drawn) [PRIMA-1MET] + C[C@@H](Oc1cc(-c2cnn(C3CCNCC3)c2)cnc1N)c1c(Cl)ccc(F)c1Cl [Crizotinib] (partner 1 µM)	0.0264

[ask] Give the measured relative viability of COCC1(CO)C(=O)C2CCN1CC2 (stereo not drawn) [PRIMA-1MET] + Cc1nc(NC(=O)N2CCC[C@H]2C(N)=O)sc1-c1ccnc(C(C)(C)C(F)(F)F)c1 [Alpelisib] (partner 2 µM) .
[reply] 0.0324

[ask] Fill in: relative viability of COCC1(CO)C(=O)C2CCN1CC2 (stereo not drawn) [PRIMA-1MET] + CS(=O)(=O)CCNCc1ccc(-c2ccc3ncnc(Nc4ccc(OCc5cccc(F)c5)c(Cl)c4)c3c2)o1 [Lapatinib] (partner 2 µM) is ___
[reply] 0.0423

[ask] So what does the record say about relative viability for COCC1(CO)C(=O)C2CCN1CC2 (stereo not drawn) [PRIMA-1MET] + CCNC(=O)c1noc(-c2cc(C(C)C)c(O)cc2O)c1-c1ccc(CN2CCOCC2)cc1 [Luminespib] (partner 0.01 µM) ?
[reply] 0.0227

---

# Test system: A549
# Test Summary: relative viability (nuclei count vs DMSO), 5 days (fraction); higher = more cells survive
# Assay Setup: first compound 0.03162 µM
relative viability: recorded values
Field format: numeric only.

Compound	relative viability
CCN(CC)CCCCNc1ncc2cc(-c3cc(OC)cc(OC)c3)c(NC(=O)NC(C)(C)C)nc2n1 + C[C@@H](Oc1cc(-c2cnn(C3CCNCC3)c2)cnc1N)c1c(Cl)ccc(F)c1Cl [Crizotinib] (partner 1 µM)	0.854
O=c1cc(N2CCOCC2)oc2c(-c3cccc4c3sc3ccccc34)cccc12 + N=C(N)NC(=N)NCCc1ccccc1 [Phenformin] (partner 250 µM)	0.143

[ask] // fetch A549 relative viability for O=c1cc(N2CCOCC2)oc2c(-c3cccc4c3sc3ccccc34)cccc12 + CC1(C)CCC(c2ccc(Cl)cc2)=C(CN2CCN(c3ccc(C(=O)NS(=O)(=O)c4ccc(N[C@H](CCN5CCOCC5)CSc5ccccc5)c(S(=O)(=O)C(F)(F)F)c4)cc3)CC2)C1 [Navitoclax] (partner 0.5 µM)
[reply] 1.17
